Molecular target: CFTR-mediated chloride transport (Homo sapiens, UniProt P13569)
Assay: Corrector Assay A - membrane potential dye assay (enteroid cells)
Settings: % of chloride transport of triple combination control (1 μM (14S)-dispiro macrocycle + 3 μM tezacaftor + 300 nM ivacaftor)
OUTCOME_MEASURE: Corrector Assay A % activity

| COMPOUND | OBSERVED |
| --- | --- |
| CC(C)(C)c1ccc2c(n1)N1C[C@@H](CCC(CC(O)CO)Nc3cccc(n3)S(=O)(=O)NC2=O)CC1(C)C (single isomer, unassigned) [Compound 33] | +++ (+++ is >60%) |
| CN1CCN(c2ccc(C3CC[C@@H]4CN(c5nc(C(C)(C)C)ccc5C(=O)NS(=O)(=O)c5cccc(n5)N3)C(C)(C)C4)nc2)CC1 (some centres unmarked) [Compound 201] | +++ (+++ is >60%) |
| COCCN1CCC2(CC1)CC(NC(=O)C1CC[C@@H]3CN(c4nc(C(C)(C)C)ccc4C(=O)NS(=O)(=O)c4cccc(n4)N1)C(C)(C)C3)C2 (single isomer, unassigned) | +++ (+++ is >60%) |

* * *

Target: CFTR-mediated chloride transport (Homo sapiens, UniProt P13569)
Assay: Corrector Assay A - membrane potential dye assay (enteroid cells)
Details: % of chloride transport of triple combination control (1 μM (14S)-dispiro macrocycle + 3 μM tezacaftor + 300 nM ivacaftor)

| MOLECULE | Corrector Assay A % activity |
| --- | --- |
| CC(C)(C)c1ccc2c(n1)N1C[C@@H](CCC(c3ccc(CN)cn3)Nc3cccc(n3)S(=O)(=O)NC2=O)CC1(C)C (single isomer, unassigned) [Compound 197] | ++ (++ is 30-60%) |
| CC(=O)NCc1ccc(C2CC[C@@H]3CN(c4nc(C(C)(C)C)ccc4C(=O)NS(=O)(=O)c4cccc(n4)N2)C(C)(C)C3)nc1 (stereo partly drawn) [Compound 71] | ++ (++ is 30-60%) |

* * *

# Lookup of reported pEC50 keyed by entry
Molecular target: CFTR-mediated chloride transport (Homo sapiens, UniProt P13569)
Experiment: Corrector Assay A - membrane potential dye assay (enteroid cells)
Details: read-out: Corrector Assay A EC50; human intestinal enteroid cells, 18-24 h incubation; acute 10 μM forskolin + 300 nM ivacaftor
pEC50: −log10 of the molar value.
OUTCOME_MEASURE: pEC50

| MOLECULE | OBSERVED |
| --- | --- |
| CC(C)(C)c1ccc2c(n1)N1C[C@@H](CC[C@@H](c3cccc(C4=CCOCC4)n3)Nc3cccc(n3)S(=O)(=O)NC2=O)CC1(C)C | > 6.00 |
| CC1(C)C[C@@H]2CC[C@@H](c3ccccn3)Nc3cccc(n3)S(=O)(=O)NC(=O)c3ccc(C#N)nc3N1C2 | 5.52 to 6.00 |
| CC(C)(C)c1ccc2c(n1)N1C[C@@H](CCC(C3CCN(CCC(F)(F)F)CC3)Nc3cccc(n3)S(=O)(=O)NC2=O)CC1(C)C (stereo partly drawn) | > 6.00 |
| CC(C)(C)CCOc1cccc(-c2ccc3c(n2)N2C[C@@H](CC[C@H](c4ccccn4)Nc4cccc(n4)S(=O)(=O)NC3=O)CC2(C)C)n1 | > 6.00 |
| CC(C)(C)c1ccc2c(n1)N1C[C@@H](CCC(c3ccc(N4CCCCC4)cn3)Nc3cccc(n3)S(=O)(=O)NC2=O)CC1(C)C (stereo partly drawn) [Compound 185] | > 6.00 |
| CC(C)(C)c1ccnc(C2CC[C@@H]3CN(c4nc(C(C)(C)C)ccc4C(=O)NS(=O)(=O)c4cccc(n4)N2)C(C)(C)C3)c1 (single isomer, unassigned) [Compound 76] | > 6.00 |

* * *

Molecular target: CFTR-mediated chloride transport (Homo sapiens, UniProt P13569)
Experiment: Corrector Assay A - membrane potential dye assay (enteroid cells)
Conditions: % of chloride transport of triple combination control (1 μM (14S)-dispiro macrocycle + 3 μM tezacaftor + 300 nM ivacaftor)

| COMPOUND | Corrector Assay A % activity |
| --- | --- |
| CC(C)(C)c1ccc2c(n1)N1C[C@@H](CCC(c3ccc(C4COC4)cn3)Nc3cccc(n3)S(=O)(=O)NC2=O)CC1(C)C (single isomer, unassigned) [Compound 39] | +++ (+++ is >60%) |
| CN(C)Cc1ccc(C2CC[C@@H]3CN(c4nc(C(C)(C)C)ccc4C(=O)NS(=O)(=O)c4cccc(n4)N2)C(C)(C)C3)nc1 (some centres unmarked) [Compound 103] | ++ (++ is 30-60%) |
| CC(C)(C)c1ccc2c(n1)N1C[C@@H](CCC(CCCC(=O)NCc3ccccc3)Nc3cccc(n3)S(=O)(=O)NC2=O)CC1(C)C (some centres unmarked) | +++ (+++ is >60%) |
| CC(C)(C)c1ccc2c(n1)N1C[C@@H](CCC(c3ccncc3)Nc3cccc(n3)S(=O)(=O)NC2=O)CC1(C)C (single isomer, unassigned) [Compound 232] | +++ (+++ is >60%) |
| CC(C)(C)NCc1ccnc([C@@H]2CC[C@@H]3CN(c4nc(C(C)(C)C)ccc4C(=O)NS(=O)(=O)c4cccc(n4)N2)C(C)(C)C3)c1 (single isomer, unassigned) [Compound 62] | ++ (++ is 30-60%) |
| CC(C)(C)c1ccc(C2CC[C@@H]3CN(c4nc(C(C)(C)C)ccc4C(=O)NS(=O)(=O)c4cccc(n4)N2)C(C)(C)C3)nc1 (single isomer, unassigned) [Compound 187] | ++ (++ is 30-60%) |
| CC(C)(C)OC(=O)N1CCC(c2ccnc(C3CC[C@@H]4CN(c5nc(C(C)(C)C)ccc5C(=O)NS(=O)(=O)c5cccc(n5)N3)C(C)(C)C4)c2)CC1 (some centres unmarked) [Compound 118] | ++ (++ is 30-60%) |
| CC1(C)C[C@@H]2CC[C@@H](c3ccccn3)Nc3cccc(n3)S(=O)(=O)NC(=O)c3ccc(-c4c(F)cccc4Cl)nc3N1C2 | ++ (++ is 30-60%) |
| CC(C)(C)c1ccc2c(n1)N1C[C@@H](CCC(c3ccc(N4CCC4)cn3)Nc3cccc(n3)S(=O)(=O)NC2=O)CC1(C)C (some centres unmarked) | +++ (+++ is >60%) |
| CC1(C)C[C@@H]2CC[C@H](c3ccccn3)Nc3cccc(n3)S(=O)(=O)NC(=O)c3ccc(Br)nc3N1C2 | ++ (++ is 30-60%) |

* * *

Target: CFTR-mediated chloride transport (Homo sapiens, UniProt P13569)
Assay: Corrector Assay A - membrane potential dye assay (enteroid cells)
Settings: % of chloride transport of triple combination control (1 μM (14S)-dispiro macrocycle + 3 μM tezacaftor + 300 nM ivacaftor)

| MOLECULE | Corrector Assay A % activity |
| --- | --- |
| CC1(C)C[C@@H]2CC[C@@H](c3ccccn3)Nc3cccc(n3)S(=O)(=O)NC(=O)c3ccc(-c4c(Cl)cccc4Cl)nc3N1C2 | ++ (++ is 30-60%) |
| CC(C)(C)c1ccc2c(n1)N1C[C@@H](CCC(C3CCN(c4ncccn4)CC3)Nc3cccc(n3)S(=O)(=O)NC2=O)CC1(C)C (stereo partly drawn) | ++ (++ is 30-60%) |

* * *

Molecular target: UniProt P13569
Test: Corrector Assay A - membrane potential dye assay (enteroid cells)
Settings: % of chloride transport of triple combination control (1 μM (14S)-dispiro macrocycle + 3 μM tezacaftor + 300 nM ivacaftor)

| MOLECULE | TARGET_ENTITY | Corrector Assay A % activity |
| --- | --- | --- |
| CC(C)(C)c1ccc2c(n1)N1C[C@@H](CCC(c3ccc(N)cn3)Nc3cccc(n3)S(=O)(=O)NC2=O)CC1(C)C (stereo partly drawn) [Compound 63] | UniProt P13569 | +++ (+++ is >60%) |
| CC(C)(C)c1ccc2c(n1)N1C[C@@H](CCC(c3ccc(-c4cc[nH]n4)cn3)Nc3cccc(n3)S(=O)(=O)NC2=O)CC1(C)C (stereo partly drawn) [Compound 130] | UniProt P13569 | +++ (+++ is >60%) |
| CCOc1cccc(-c2ccc3c(n2)N2C[C@@H](CC[C@H](c4ccccn4)Nc4cccc(n4)S(=O)(=O)NC3=O)CC2(C)C)n1 [Compound 316] | UniProt P13569 | +++ (+++ is >60%) |
| CC(C)(C)c1ccc2c(n1)N1C[C@@H](CC[C@@H](c3ncccc3Br)Nc3cccc(n3)S(=O)(=O)NC2=O)CC1(C)C (single isomer, unassigned) [Compound 53] | UniProt P13569 | +++ (+++ is >60%) |
| CC(C)(C)c1ccc2c(n1)N1C[C@@H](CCC(c3ccc(CCN)cn3)Nc3cccc(n3)S(=O)(=O)NC2=O)CC1(C)C (stereo partly drawn) [Compound 113] | UniProt P13569 | ++ (++ is 30-60%) |
| CC(C)(C)c1ccc2c(n1)N1C[C@@H](CCC(c3ccc(Br)cn3)Nc3cccc(n3)S(=O)(=O)NC2=O)CC1(C)C (single isomer, unassigned) [Compound 171] | UniProt P13569 | ++ (++ is 30-60%) |
| CN1CCC(C2CC[C@@H]3CN(c4nc(C(C)(C)C)ccc4C(=O)NS(=O)(=O)c4cccc(n4)N2)C(C)(C)C3)CC1 (single isomer, unassigned) [Compound 240] | UniProt P13569 | +++ (+++ is >60%) |
| CC(C)(C)c1ccc2c(n1)N1C[C@@H](CCC(c3ccc(CCC#N)cn3)Nc3cccc(n3)S(=O)(=O)NC2=O)CC1(C)C (single isomer, unassigned) [Compound 145] | UniProt P13569 | ++ (++ is 30-60%) |
| CC(C)(C)c1ccc2c(n1)N1C[C@@H](CCC(c3ccc(CCC(=O)O)cn3)Nc3cccc(n3)S(=O)(=O)NC2=O)CC1(C)C (stereo partly drawn) [Compound 97] | UniProt P13569 | ++ (++ is 30-60%) |
| CC1(C)C[C@@H]2CC[C@H](c3ccccn3)Nc3cccc(n3)S(=O)(=O)NC(=O)c3ccc(-c4cccc(F)n4)nc3N1C2 [Compound 318] | UniProt P13569 | +++ (+++ is >60%) |
| CN(C)Cc1cccc([C@H]2CC[C@@H]3CN(c4nc(C(C)(C)C)ccc4C(=O)NS(=O)(=O)c4cccc(n4)N2)C(C)(C)C3)n1 [Compound 99] | UniProt P13569 | ++ (++ is 30-60%) |

Data origin: patent US20220313698A1
